# measuredOn: androgen receptor (AR) (Homo sapiens, UniProt P10275)
# Sequence (P10275 whole entry): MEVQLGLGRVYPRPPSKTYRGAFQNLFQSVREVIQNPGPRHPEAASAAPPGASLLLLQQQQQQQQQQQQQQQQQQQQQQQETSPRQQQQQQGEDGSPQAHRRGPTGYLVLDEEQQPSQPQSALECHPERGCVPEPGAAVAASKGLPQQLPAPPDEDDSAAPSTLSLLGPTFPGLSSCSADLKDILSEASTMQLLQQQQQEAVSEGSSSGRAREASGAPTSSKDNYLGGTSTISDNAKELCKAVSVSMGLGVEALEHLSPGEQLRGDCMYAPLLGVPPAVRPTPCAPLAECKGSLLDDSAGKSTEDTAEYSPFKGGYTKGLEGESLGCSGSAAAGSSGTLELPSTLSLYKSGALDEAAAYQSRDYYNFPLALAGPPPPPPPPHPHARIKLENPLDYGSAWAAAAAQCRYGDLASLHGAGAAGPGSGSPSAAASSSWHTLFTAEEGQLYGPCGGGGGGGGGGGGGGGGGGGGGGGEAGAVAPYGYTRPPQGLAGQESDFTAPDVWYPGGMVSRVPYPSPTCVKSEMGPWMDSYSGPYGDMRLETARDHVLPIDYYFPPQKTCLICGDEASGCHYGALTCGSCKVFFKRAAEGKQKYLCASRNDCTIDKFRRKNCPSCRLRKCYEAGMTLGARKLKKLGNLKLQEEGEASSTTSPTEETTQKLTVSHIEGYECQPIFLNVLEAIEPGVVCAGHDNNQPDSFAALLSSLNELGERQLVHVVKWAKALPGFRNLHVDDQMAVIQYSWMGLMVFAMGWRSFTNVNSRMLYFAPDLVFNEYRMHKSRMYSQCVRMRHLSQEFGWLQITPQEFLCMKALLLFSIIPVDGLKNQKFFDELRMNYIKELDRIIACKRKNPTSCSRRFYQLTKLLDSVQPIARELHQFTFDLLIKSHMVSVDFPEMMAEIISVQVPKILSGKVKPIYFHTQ
# testProtocol: Degradation of androgen receptor (AR) protein in VCaP cells by Western blot
# Type: cell-based
# assayContext: percentage of degraded AR at 100 nM, VCaP cells, 16 h
Measured inhibition at 0.1 µM, listed per entry.

[ask] Tell me reported inhibition at 0.1 µM for N#Cc1ccc(O[C@H]2CC[C@H](N3Cc4nc(C#CC5CCN(C6CCN(c7ccc8c(c7)C(=O)N(C7CCC(=O)NC7=O)C8=O)CC6)CC5)ccc4C3=O)CC2)cc1Cl (some centres unmarked) [Compound 323] , tested with androgen receptor (AR) (Homo sapiens, UniProt P10275).
[reply] < 25%

[ask] Next entry: N#Cc1ccc(O[C@H]2CC[C@H](NC(=O)c3ccc(N4CCC(NC5CCN(c6cc7c(cc6F)C(=O)N(C6CCC(=O)NC6=O)C7=O)CC5)CC4)cc3)CC2)cc1Cl (some centres unmarked) [Compound 219]
[reply] 25 to 49%

[ask] Next entry: N#Cc1ccc(O[C@H]2CC[C@H](NC(=O)c3ccc(N4C[C@H]5C[C@@H](CN6CC7CN(c8cc9c(cc8F)C(=O)N(C8CCC(=O)NC8=O)C9=O)CC7C6)C[C@H]5C4)nn3)CC2)cc1Cl (some centres unmarked) [Compound 222]
[reply] > 80%

[ask] Next entry: N#Cc1ccc(Oc2ccc(NC(=O)c3ccc(N4CCC(CN5CCN(c6cc7c(cc6F)C(=O)N(C6CCC(=O)NC6=O)C7=O)CC5)CC4)nn3)cc2)cc1Cl (centres unmarked) [Compound 227]
[reply] 25 to 49%

Next item in the queue.
[ask] Tell me reported inhibition at 0.1 µM for N#Cc1ccc(O[C@H]2CC[C@H](NC(=O)c3ccc(N4CC5CN(CC6CN(c7cc8c(cc7F)C(=O)N(C7CCC(=O)NC7=O)C8=O)C6)CC5C4)nn3)CC2)cc1Cl (some centres unmarked) [Compound 160] , tested with androgen receptor (AR) (Homo sapiens, UniProt P10275).
[reply] < 25%

Numbers sourced from patent US20230091225A1.
